Molecular target: T1, CRBN, Q96SW2;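 note: pooled lentiviral library of zinc finger degron-EGFP fusions in mCherry-positive Jurkat cells, FACS-sorted after compound exposure, with degron abundance counted by next-generation sequencing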
T1 chain: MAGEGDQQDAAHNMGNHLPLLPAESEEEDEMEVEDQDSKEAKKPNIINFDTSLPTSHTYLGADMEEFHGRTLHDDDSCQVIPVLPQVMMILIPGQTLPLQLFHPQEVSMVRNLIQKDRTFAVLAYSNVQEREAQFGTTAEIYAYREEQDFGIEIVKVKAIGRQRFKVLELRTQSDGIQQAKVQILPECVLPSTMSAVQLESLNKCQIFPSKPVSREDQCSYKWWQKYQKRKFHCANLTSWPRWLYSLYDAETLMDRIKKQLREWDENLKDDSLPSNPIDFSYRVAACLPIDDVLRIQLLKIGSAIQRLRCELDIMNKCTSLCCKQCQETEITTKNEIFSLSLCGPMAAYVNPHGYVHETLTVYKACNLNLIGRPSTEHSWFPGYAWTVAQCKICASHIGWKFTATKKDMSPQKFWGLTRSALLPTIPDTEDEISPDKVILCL
Experiment: log2 fold change of degron read counts, EGFP-low vs EGFP+ sorted cells (limma voom), compound-induced degradation; higher = more compound-induced degradation of the degron-EGFP fusion; degrons are variants of IKZF1/3 zinc finger 2; compound dose not given here
Conditions: Jurkat; 18 h; compound: compound 22 (5-morpholino-thalidomide)
In all, about 8,300 sequences were measured (“log2 fold change of degron read counts, EGFP-low vs EGFP+ sorted cells (limma voom), compound-induced degradation”: median about -1.1, highest 2% from about 3.2 on). Shown is part of a subset that was picked to be rich in the highest values.
Measured property: log2 fold change of degron read counts

Residue sequence	Measured property	Data value
FCCDICGAIFTQKGNLLRHIKL [46F_47C_49D_50I_52G_53A_54I_55F_67L_, Q9UKT9]	log2 fold change of degron read counts	0.0957
FNCEICGHGFTQKGNLLRHIKL [46F_47N_49E_50I_52G_53H_54G_55F_67L_, Q9UKT9]	log2 fold change of degron read counts	-2.67
FWCDVCGARFTQKGNLLRHIKL [46F_47W_49D_50V_52G_53A_54R_55F_67L_, Q9UKT9]	log2 fold change of degron read counts	3.6
FDCDVCGARFTQKGNLLRHIKL [46F_47D_49D_50V_52G_53A_54R_55F_67L_, Q9UKT9]	log2 fold change of degron read counts	-0.479
FGCPVCGAIFTQKGNLLRHIKL [46F_47G_49P_50V_52G_53A_54I_55F_67L_, Q9UKT9]	log2 fold change of degron read counts	2.12
FICPICGHFFTQKGNLLRHIKL [46F_47I_49P_50I_52G_53H_54F_55F_67L_, Q9UKT9]	log2 fold change of degron read counts	-2.08
FDCNQCGHQFTQKGNLLRHIKL [46F_47D_49N_50Q_52G_53H_54Q_55F_67L_, Q9UKT9]	log2 fold change of degron read counts	-3.11
